Source listed as the RNAGym collection of RNA variant scans (doi:10.1073/pnas.2313332121).

variants and their reported polymerase ribozyme fitness (log ratio)
B1: TPR t1 (parent)
chain: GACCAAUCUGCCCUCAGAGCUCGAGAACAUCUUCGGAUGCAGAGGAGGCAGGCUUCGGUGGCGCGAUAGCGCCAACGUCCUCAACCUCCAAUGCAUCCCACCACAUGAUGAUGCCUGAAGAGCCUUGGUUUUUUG

- Variants of: B1
- protocol-summary: polymerase ribozyme fitness, log enrichment relative to wild type (log ratio); higher = more active; in vitro selection for triplet polymerase activity
Lab note: record the figure alone, no unit after it.

Consider the reported polymerase ribozyme fitness (log ratio) for these variants:
C34A G61A U112A C115U :: -6.79
U9C U92A C114A :: -1.69
G10A U92A :: -2.86
C15U C88U A118G :: -1.82
C12U G23A G120A :: -3.8
G25U C72U C88A U109C A119U C123U :: -8.09
C13G C53G U59C U133G :: -1.68
A37U C73G :: -1.27

# return recorded polymerase ribozyme fitness (log ratio) for entry C12U G48U A111C -0.108

# return recorded polymerase ribozyme fitness (log ratio) for entry C12U C76G C79A C99U U126C -5.59

# return recorded polymerase ribozyme fitness (log ratio) for entry C89G U92A G122A -4.41

# return recorded polymerase ribozyme fitness (log ratio) for entry A16U A50G U96A U112C G127C -2.27

# return recorded polymerase ribozyme fitness (log ratio) for entry C70U A91C C101U U112A U129C -6.24

# return recorded polymerase ribozyme fitness (log ratio) for entry G10U U106A 0.263

# return recorded polymerase ribozyme fitness (log ratio) for entry G44U A46U C70U -3.55

# return recorded polymerase ribozyme fitness (log ratio) for entry C49U U81G U96C -4.63
